molecular target: Autotaxin (Homo sapiens); experiment: Inhibition of human recombinant C-terminal FLAG-tagged autotaxin expressed in baculovirus-infected Sf9 cells assessed as FS-3 hydrolysis at 10 uM relative to control
Each record here notes measured inhibition.

structure_notation | inhibition, %
Cc1ccc(/N=N/c2c(S(=O)(=O)O)cc3cc(NC(=O)Nc4ccc5c(O)c(/N=N/c6ccc7cc(S(=O)(=O)O)ccc7c6)c(S(=O)(=O)O)cc5c4)ccc3c2O)c(C)c1 | 67
Cc1ccc(C(=O)Nc2ccc(S(=O)(=O)[O-])c3cc(S(=O)(=O)O)cc(S(=O)(=O)[O-])c23)cc1NC(=O)c1cccc(NC(=O)Nc2cccc(C(=O)Nc3cc(C(=O)Nc4ccc(S(=O)(=O)O)c5cc(S(=O)(=O)O)cc(S(=O)(=O)O)c45)ccc3C)c2)c1.Cc1ccc(C)c2c1c(NCCCCCCNc1cc(C)[n+](C)c3c(C)ccc(C)c13)cc(C)[n+]2C | 6
